Data origin: patent US11376228B2

System: human gastric cancer cells MKN45
METHOD: MTT assay, proliferation of human gastric cancer cells MKN45
Format: cell-based
RECORDED_CONDITIONS: Homo sapiens, MKN-45, 48 h, read-out: IC50 on the proliferation of human gastric cancer cells MKN45
Experimental: The original culture medium for human gastric cancer cells MKN45 was removed, and human gastric cancer cells MKN45 were rinsed with 2 mL of phosphate buffer saline (PBS), digested with 0.5 mL of pancreatic enzyme for 3 min. […] 0.5 mL of cell suspension was transferred to an Eppendorf (EP) tube and the cells were counted. […] The numbers of the required cells and wells and the amount of culture medium were calculated. […] The cells were cultured in different compounds for 48 h and were then detected. […]
MEASURED_PROPERTY: pIC50
Bear in mind: pIC50 is minus log10 of a mol/L concentration; give just that figure.

Task: So what's the measured pIC50 for this one? Cc1cc2c(C(C)C)c(O)c(O)c(C=O)c2c(O)c1-c1c(C)cc2c(C(C)C)c(O)c(O)c(C=O)c2c1O [I-A9, gossypol, reference compound]
Result: 4.81

====

System: human prostate cancer cells PC3
METHOD: MTT assay, proliferation of human prostate cancer cells PC3
Type: cell-based
RECORDED_CONDITIONS: Homo sapiens; PC3, MTT, 48 h, 0-32 μM; read-out: IC50 on the proliferation of human prostate cancer cells PC3
# log10 IC50 per record follows
Hello, just confirming the data are log10 of IC50 with units of µM.

1) Cc1cc(C)cc(-c2c(C)c(O)c(O)c(C=O)c2COCc2ccccc2)c1 = 0.82

Task: Field: log10 IC50 (human prostate cancer cells PC3). Entry: COc1ccc(-c2c(C)c(O)c(O)c(C=O)c2COCc2ccccc2)cc1
Result: 0.63

Task: Do the same for Cc1c(O)c(O)c(C=O)c(COCc2ccccc2)c1-c1ccc(C(C)(C)C)cc1 please
Result: 0.81

Task: Do the same for COc1cc(OC)c(Cc2cc(C(C)C)c(O)c(O)c2C=O)c(OC)c1 please
Result: 0.72

Task: Do the same for Cc1c(O)c(O)c(C=O)c(COCc2ccccc2)c1-c1cccc2ccccc12 please
Result: 0.91

Task: Do the same for COc1cccc2c(OC)c(Cc3cc(C)c(O)c(O)c3C=O)ccc12 please
Result: 0.82

Task: Do the same for Cc1c(O)c(O)c(C=O)c(COCc2ccccc2)c1-c1ccccc1 please
Result: 0.92

Task: Do the same for CC(C)c1cc(COCc2ccccc2)c(C=O)c(O)c1O please
Result: 0.82

Task: Do the same for COc1cc(OC)c(Cc2c(C=O)c(O)c(O)c(C)c2-c2ccco2)c(OC)c1 please
Result: 0.54

Task: Do the same for CCc1cc(COCc2ccccc2)c(C=O)c(O)c1O please
Result: 0.86

====

# pIC50 per record follows
Tested on: human prostate cancer cells PC3
METHOD: MTT assay, proliferation of human prostate cancer cells PC3
Assay type: cell-based
RECORDED_CONDITIONS: Homo sapiens; PC3, MTT, 48 h, 0-32 μM; read-out: IC50 on the proliferation of human prostate cancer cells PC3
Bear in mind: pIC50 is minus log10 of a mol/L concentration; give just that figure.

1. Cc1cc(COCc2ccccc2)c(C=O)c(O)c1O = 5.09

Task: So what's the measured pIC50 for this one? Cc1c(O)c(O)c(C=O)c(COCc2ccccc2)c1-c1ccc(F)cc1
Result: 5.00

Task: Do the same for CC(C)c1c(O)c(O)c(C=O)c2c1C(c1ccccc1)CC2 (centres unmarked) please
Result: 5.54

Task: Do the same for Cc1c(O)c(O)c(C=O)c2c1C(c1ccc(C(F)(F)F)cc1)CC2 (centres unmarked) please
Result: 5.15

Task: Do the same for COc1cc(OC)c(Cc2c(C=O)c(O)c(O)c(C)c2-c2ccc(Br)cc2)c(OC)c1 please
Result: 5.75

Task: Do the same for Cc1c(O)c(O)c(C=O)c(CC=C(c2ccccc2)c2ccccc2)c1-c1ccccc1 please
Result: 5.14

Task: Do the same for Cc1c(O)c(O)c(C=O)c(COCc2ccccc2)c1Br please
Result: 5.63

Task: Do the same for COc1cc(OC)c(Cc2c(C=O)c(O)c(O)c(C)c2-c2ccc([N+](=O)[O-])cc2)c(OC)c1 please
Result: 5.55

Task: Do the same for C#CCOCc1c(C=O)c(O)c(O)c(C)c1-c1ccccc1 please
Result: 5.30

====

System: human prostate cancer cells PC3
METHOD: MTT assay, proliferation of human prostate cancer cells PC3
Assay type: cell-based
RECORDED_CONDITIONS: Homo sapiens; PC3, MTT, 48 h, 0-32 μM; read-out: IC50 on the proliferation of human prostate cancer cells PC3
Note to self: IC50 under 4 µM means MET, ties and anything higher get NOT MET.

1. CC(C)c1c(O)c(O)c(C=O)c(COCc2ccccc2)c1-c1ccccc1 = MET

Please find the next molecule below.
Task: Input Cc1c(O)c(O)c(C=O)c(COCc2ccccc2)c1-c1ccsc1 ; condition: IC50 strictly below 4 µM. Does it hold?
Result: NOT MET

====

System: human prostate cancer cells PC3
METHOD: MTT assay, proliferation of human prostate cancer cells PC3
Assay type: cell-based
RECORDED_CONDITIONS: Homo sapiens; PC3, MTT, 48 h, 0-32 μM; read-out: IC50 on the proliferation of human prostate cancer cells PC3
MEASURED_PROPERTY: pIC50
Bear in mind: pIC50 is minus log10 of a mol/L concentration; give just that figure.

Below are worked cases with known answers.
1) COC(=O)c1ccc(-c2c(C)c(O)c(O)c(C=O)c2Cc2c(OC)cc(OC)cc2OC)cc1 = 4.88
2) CCc1c(O)c(O)c(C=O)c(Cc2c(OC)cc(OC)cc2OC)c1-c1ccccc1 = 5.54

Now examine the next entry.
Task: Field: pIC50 (human prostate cancer cells PC3). Entry: COc1cc(OC)c(Cc2c(C#Cc3ccccc3)c(C)c(O)c(O)c2C=O)c(OC)c1
Result: 5.38
